Assay: Determination of plasma half-life after intravenous injection in rats
Format: in vivo
Conditions: rat, plasma, 1.7 mL/kg solution via jugular cannula, HPLC, elimination phase, read-out: Plasma Halflife (converted)
Experimental: Rats were injected intravenously with a 1.7 mL/kg solution of test compound through a jugular cannula. Multiple blood samples were collected from the lateral tail vein using heparinized capillary tubes. […] The supernatant was analyzed by HPLC using a C18 Adsorbosphere 7μm column and eluted with a mobile phase of varying amounts of acetonitrile and aqueous 8mM triethylamine acetate and 10mM acetohydroxamic acid with a flow rate of about 1mL/min and detection by UV spectroscopy. […]
Measurement Kind: half-life (h)

Consider the following illustrative entries.
CC(c1ccc(OCc2ccc(Cl)cc2)cc1)N(O)C(N)=O (stereo not drawn) ... 4.6
CC(=O)N(O)C(C)c1ccc(OCc2ccc(F)cc2)cc1 (stereo not drawn) ... 5.6
CC(Oc1ccc(C(C)N(O)C(N)=O)cc1)c1ccc(F)cc1 (stereo not drawn) ... 7.2

(a) CC(Oc1ccc(C(C)N(O)C(N)=O)cc1)c1ccc(Cl)cc1 (stereo not drawn)
(b) Cc1cc(C(C)N(O)C(N)=O)ccc1OC(C)c1ccccc1 (stereo not drawn)
(c) Cc1cc(C(C)N(O)C(N)=O)ccc1OCc1ccccc1 (stereo not drawn)
Give the ascending ranking of the items by reported half-life. Put the labels in the requested order and list them out.
c, b, a
(c: 2.7 h, b: 5.3 h, a: 7.8 h)

---

Observed IC50 values for 5-Lipoxygenase (Homo sapiens, UniProt P09917) are listed in what follows.
Measurement Kind: IC50 (nM)

Please review the entries below; each comes with its answer.
CC(c1ccc(OCc2ccc(F)cc2)cc1)N(O)C(N)=O (stereo not shown) ... 400
Cc1cc(OCc2ccccc2)ccc1C(C)N(O)C(N)=O (stereo not shown) ... 400

(1) Cc1cc(C(C)N(O)C(N)=O)ccc1OCc1ccccc1 (stereo not shown)
(2) CC(=O)N(O)C(C)c1ccc(OCc2ccc(F)cc2)cc1 (stereo not shown)
Lower value for measured IC50? Options: 1 , 2 Record your answer as the label of the chosen record.
1

---

test: Determination of plasma half-life after intravenous injection in rats; format: in vivo; conditions: rat, plasma, 1.7 mL/kg solution via jugular cannula, HPLC, elimination phase, read-out: Plasma Halflife (converted)
Measurement Kind: half-life (h)

Please review the entries below; each comes with its answer.
Cc1cc(OC(C)c2ccccc2)ccc1C(C)N(O)C(N)=O (centres unmarked) ... 1.2
CC(=O)N(O)C(C)c1ccc(OC(C)c2ccc(F)cc2)cc1 (centres unmarked) ... 12.4

(a) CC(=O)N(O)C(C)c1ccc(OCc2ccc(Cl)cc2)cc1 (centres unmarked)
(b) Cc1cc(OCc2ccccc2)ccc1C(C)N(O)C(N)=O (centres unmarked)
Kindly identify which of a and b has the larger recorded half-life value. Respond with the label that goes with your answer.
a
